# MIC annotations
- Test system: Escherichia coli
- Assay overview: Antimicrobial activity against Escherichia coli MTCC-443 after 24 hrs by broth dilution method
- Type: functional
- Measurement context: MTCC-443, 24 h

[
  {
    "Substance smiles": "C/C(=N\\n1c(/N=C/c2cccc(F)c2)c(C#N)c(-c2ccc([N+](=O)[O-])cc2)c(C#N)c1=O)c1nc2ccccc2[nH]1",
    "Unit info": "µg/mL",
    "MIC": 100
  },
  {
    "Substance smiles": "C/C(=N\\n1c(/N=C/c2cccc([N+](=O)[O-])c2)c(C#N)c(-c2ccc([N+](=O)[O-])cc2)c(C#N)c1=O)c1nc2ccccc2[nH]1",
    "Unit info": "µg/mL",
    "MIC": 250
  },
  {
    "Substance smiles": "COc1ccc(/C=N/c2c(C#N)c(-c3ccc([N+](=O)[O-])cc3)c(C#N)c(=O)n2/N=C(\\C)c2nc3ccccc3[nH]2)cc1",
    "Unit info": "µg/mL",
    "MIC": 500
  },
  {
    "Substance smiles": "C/C(=N\\n1c(/N=C/c2cccc(Br)c2)c(C#N)c(-c2ccc([N+](=O)[O-])cc2)c(C#N)c1=O)c1nc2ccccc2[nH]1",
    "Unit info": "µg/mL",
    "MIC": 25
  },
  {
    "Substance smiles": "C/C(=N\\n1c(/N=C/c2cccc(C)c2)c(C#N)c(-c2ccc([N+](=O)[O-])cc2)c(C#N)c1=O)c1nc2ccccc2[nH]1",
    "Unit info": "µg/mL",
    "MIC": 100
  },
  {
    "Substance smiles": "C/C(=N\\n1c(/N=C/c2ccccc2)c(C#N)c(-c2ccc([N+](=O)[O-])cc2)c(C#N)c1=O)c1nc2ccccc2[nH]1",
    "Unit info": "µg/mL",
    "MIC": 500
  },
  {
    "Substance smiles": "C/C(=N\\n1c(/N=C/c2ccc(O)cc2)c(C#N)c(-c2ccc([N+](=O)[O-])cc2)c(C#N)c1=O)c1nc2ccccc2[nH]1",
    "Unit info": "µg/mL",
    "MIC": 250
  }
]

====

# log10 MIC values compiled below
- Test system: Escherichia coli
- Assay overview: Antimicrobial activity against Escherichia coli MTCC-443 after 24 hrs by broth dilution method
- Type: functional
- Measurement context: MTCC-443, 24 h
Measurement name: log10 MIC (log10 of the value in µg/mL)

[
  {
    "Substance smiles": "C/C(=N\\n1c(/N=C/c2ccccc2Cl)c(C#N)c(-c2ccc([N+](=O)[O-])cc2)c(C#N)c1=O)c1nc2ccccc2[nH]1",
    "Observed result": 2.00
  },
  {
    "Substance smiles": "O=C(O)c1cn(C2CC2)c2cc(N3CCNCC3)c(F)cc2c1=O",
    "Observed result": 1.40
  },
  {
    "Substance smiles": "C/C(=N\\n1c(/N=C/c2cccc(O)c2)c(C#N)c(-c2ccc([N+](=O)[O-])cc2)c(C#N)c1=O)c1nc2ccccc2[nH]1",
    "Observed result": 2.70
  },
  {
    "Substance smiles": "C/C(=N\\n1c(/N=C/c2ccc(C)cc2)c(C#N)c(-c2ccc([N+](=O)[O-])cc2)c(C#N)c1=O)c1nc2ccccc2[nH]1",
    "Observed result": 2.40
  },
  {
    "Substance smiles": "C/C(=N\\n1c(/N=C/c2cccc(Cl)c2)c(C#N)c(-c2ccc([N+](=O)[O-])cc2)c(C#N)c1=O)c1nc2ccccc2[nH]1",
    "Observed result": 1.70
  },
  {
    "Substance smiles": "C/C(=N\\n1c(/N=C/c2ccc(F)cc2)c(C#N)c(-c2ccc([N+](=O)[O-])cc2)c(C#N)c1=O)c1nc2ccccc2[nH]1",
    "Observed result": 2.40
  },
  {
    "Substance smiles": "C/C(=N\\n1c(/N=C/c2ccc(Cl)cc2)c(C#N)c(-c2ccc([N+](=O)[O-])cc2)c(C#N)c1=O)c1nc2ccccc2[nH]1",
    "Observed result": 2.00
  }
]

====

Listed below: IC50 values for each entry.
- Tested on: Vero
- Assay overview: Cytotoxicity against african green monkey Vero cells after 72 hrs by MTS-PMS method
- Type: cell-based
- Measurement context: Chlorocebus sabaeus

[
  {
    "Substance smiles": "C/C(=N\\n1c(/N=C/c2cccc(C)c2)c(C#N)c(-c2ccc([N+](=O)[O-])cc2)c(C#N)c1=O)c1nc2ccccc2[nH]1",
    "Unit info": "µg/mL",
    "Censor symbol": ">",
    "IC50": 39.4
  },
  {
    "Substance smiles": "C/C(=N\\n1c(/N=C/c2ccc(Cl)cc2)c(C#N)c(-c2ccc([N+](=O)[O-])cc2)c(C#N)c1=O)c1nc2ccccc2[nH]1",
    "Unit info": "µg/mL",
    "Censor symbol": ">",
    "IC50": 39.4
  },
  {
    "Substance smiles": "C/C(=N\\n1c(/N=C/c2cccc([N+](=O)[O-])c2)c(C#N)c(-c2ccc([N+](=O)[O-])cc2)c(C#N)c1=O)c1nc2ccccc2[nH]1",
    "Unit info": "µg/mL",
    "Censor symbol": "=",
    "IC50": 27.6
  },
  {
    "Substance smiles": "C/C(=N\\n1c(/N=C/c2ccccc2C)c(C#N)c(-c2ccc([N+](=O)[O-])cc2)c(C#N)c1=O)c1nc2ccccc2[nH]1",
    "Unit info": "µg/mL",
    "Censor symbol": "=",
    "IC50": 34.5
  },
  {
    "Substance smiles": "C/C(=N\\n1c(/N=C/c2ccc(F)cc2)c(C#N)c(-c2ccc([N+](=O)[O-])cc2)c(C#N)c1=O)c1nc2ccccc2[nH]1",
    "Unit info": "µg/mL",
    "Censor symbol": "=",
    "IC50": 24.8
  },
  {
    "Substance smiles": "C/C(=N\\n1c(/N=C/c2ccc([N+](=O)[O-])cc2)c(C#N)c(-c2ccc([N+](=O)[O-])cc2)c(C#N)c1=O)c1nc2ccccc2[nH]1",
    "Unit info": "µg/mL",
    "Censor symbol": "=",
    "IC50": 16.1
  },
  {
    "Substance smiles": "C/C(=N\\n1c(/N=C/c2ccccc2Cl)c(C#N)c(-c2ccc([N+](=O)[O-])cc2)c(C#N)c1=O)c1nc2ccccc2[nH]1",
    "Unit info": "µg/mL",
    "Censor symbol": ">",
    "IC50": 39.4
  },
  {
    "Substance smiles": "C/C(=N\\n1c(/N=C/c2ccccc2O)c(C#N)c(-c2ccc([N+](=O)[O-])cc2)c(C#N)c1=O)c1nc2ccccc2[nH]1",
    "Unit info": "µg/mL",
    "Censor symbol": "=",
    "IC50": 19.8
  },
  {
    "Substance smiles": "COc1cccc(/C=N/c2c(C#N)c(-c3ccc([N+](=O)[O-])cc3)c(C#N)c(=O)n2/N=C(\\C)c2nc3ccccc3[nH]2)c1",
    "Unit info": "µg/mL",
    "Censor symbol": "=",
    "IC50": 24.2
  },
  {
    "Substance smiles": "C/C(=N\\n1c(/N=C/c2ccc(C)cc2)c(C#N)c(-c2ccc([N+](=O)[O-])cc2)c(C#N)c1=O)c1nc2ccccc2[nH]1",
    "Unit info": "µg/mL",
    "Censor symbol": ">",
    "IC50": 39.4
  },
  {
    "Substance smiles": "C/C(=N\\n1c(/N=C/c2cccc(F)c2)c(C#N)c(-c2ccc([N+](=O)[O-])cc2)c(C#N)c1=O)c1nc2ccccc2[nH]1",
    "Unit info": "µg/mL",
    "Censor symbol": "=",
    "IC50": 23.6
  },
  {
    "Substance smiles": "C/C(=N\\n1c(/N=C/c2ccccc2)c(C#N)c(-c2ccc([N+](=O)[O-])cc2)c(C#N)c1=O)c1nc2ccccc2[nH]1",
    "Unit info": "µg/mL",
    "Censor symbol": "=",
    "IC50": 17.6
  },
  {
    "Substance smiles": "COc1ccc(/C=N/c2c(C#N)c(-c3ccc([N+](=O)[O-])cc3)c(C#N)c(=O)n2/N=C(\\C)c2nc3ccccc3[nH]2)cc1",
    "Unit info": "µg/mL",
    "Censor symbol": "=",
    "IC50": 25.4
  },
  {
    "Substance smiles": "C/C(=N\\n1c(/N=C/c2cccc(Cl)c2)c(C#N)c(-c2ccc([N+](=O)[O-])cc2)c(C#N)c1=O)c1nc2ccccc2[nH]1",
    "Unit info": "µg/mL",
    "Censor symbol": ">",
    "IC50": 39.4
  }
]

These entries and their values trace back to ChEMBL document CHEMBL3286187.
